target: HSD17B13 enzyme (Homo sapiens (Human)); assay: NADH detection assay (fluorescence based LTB3 assay) for HSD17B13 activity; type: biochemical; details: substrate 25 µM LTB3, 3 mM NAD+, 125 nM enzyme
For each entry below, report its IC50 value.

{"MOL SMILES": "CC(C)(C)CCn1cnc2cccc(NC(=O)c3ccc(S(=O)(=O)NC(=O)c4cccnc4)c(Cl)c3)c2c1=O", "RESULT": "5 to 10 µM"}

// each listed molecule needs a value for IC50
1. COc1ccccc1CCn1cnc2cccc(NC(=O)c3ccc(S(N)(=O)=O)c(Cl)c3)c2c1=O
2. COc1ccccc1CCn1cnc2cccc(NC(=O)c3cc(Cl)c(O)c(C(C)C)c3)c2c1=O
3. O=C(Nc1cccc2ncn(CC3CC3)c(=O)c12)c1ccc(S(=O)(=O)NC(=O)c2ccccc2)c(Cl)c1
4. COc1ccccc1CCn1cnc2cccc(NC(=O)c3ccc(C(=O)O)c(Cl)c3)c2c1=O
5. COc1ccccc1CCn1cnc2cccc(NC(=O)c3ccc(O)c(C(C)(C)C)c3)c2c1=O
6. COc1ccccc1CCn1cnc2cccc(NC(=O)c3ccc(-c4cc[nH]n4)c(F)c3)c2c1=O

Reply:
["> 10 µM", "> 10 µM", "1 to 5 µM", "> 10 µM", "> 10 µM", "1 to 5 µM"]

I would be grateful if you could provide IC50 for each of the following entries.
1. COc1ccccc1CCn1cnc2cccc(NC(=O)c3ccc(-c4cnn[nH]4)c(F)c3)c2c1=O
2. CC(C)(C)CCn1cnc2cccc(NC(=O)c3ccc(S(=O)(=O)NC(=O)c4ccccc4)c(Cl)c3)c2c1=O
3. Cn1c(-c2cccnc2)nc2cccc(NC(=O)c3ccc(-c4nnn[nH]4)c(F)c3)c2c1=O
4. COc1ccccc1CCn1cnc2cccc(NC(=O)c3cc(Cl)c4[nH]c(=O)[nH]c4c3)c2c1=O
5. COc1ccccc1CCn1cnc2cccc(NC(=O)c3ccc(P(=O)(O)O)c(F)c3)c2c1=O

Reply:
1. > 10 µM
2. > 10 µM
3. > 10 µM
4. 1 to 5 µM
5. > 10 µM

Please state IC50 for every molecule in the list that follows.
1. COc1ccccc1CCn1cnc2cccc(NC(=O)c3ccc(-c4cn[nH]c4)c(F)c3)c2c1=O
2. COc1ccccc1CCn1cnc2cccc(NC(=O)c3ccc(-c4nnn[nH]4)c(Cl)c3)c2c1=O
3. O=C(Nc1cccc2ncn(Cc3cccnc3)c(=O)c12)c1ccc(O)c(Cl)c1
4. COc1ccccc1CCn1cnc2cccc(NC(=O)c3ccc(O)c(Cl)c3)c2c1=O
5. O=C(Nc1cccc2ncn(Cc3ccccc3)c(=O)c12)c1ccc(O)c(Cl)c1

Reply:
1: > 10 µM; 2: 1 to 5 µM; 3: ≤ 1 µM; 4: ≤ 1 µM; 5: ≤ 1 µM

I have 2 molecules here; please give me IC50 for each one.
1. COc1ccccc1CCn1cnc2cccc(NC(=O)c3ccc(O)c(C(F)(F)F)c3)c2c1=O
2. O=C(Nc1cccc2ncn(Cc3ccncc3)c(=O)c12)c1ccc(O)c(F)c1

Reply:
1. ≤ 1 µM
2. > 10 µM

----------
target: HSD17B13 enzyme (Homo sapiens (Human), UniProt Q7Z5P4); assay: Estrone detection assay (LC/MS, conversion of estradiol to estrone) for HSD17B13 activity; format: biochemical; settings: substrate 4 µM estradiol, 6 mM NAD+, 30 nM enzyme
Sequence (Q7Z5P4 20-300): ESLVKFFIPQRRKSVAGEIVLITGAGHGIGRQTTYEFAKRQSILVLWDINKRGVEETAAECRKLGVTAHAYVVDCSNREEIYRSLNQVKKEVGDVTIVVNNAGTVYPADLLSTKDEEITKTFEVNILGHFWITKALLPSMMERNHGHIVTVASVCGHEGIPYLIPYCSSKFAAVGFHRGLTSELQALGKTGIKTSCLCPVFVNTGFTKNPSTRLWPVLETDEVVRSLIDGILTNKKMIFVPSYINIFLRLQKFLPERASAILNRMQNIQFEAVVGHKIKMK
Field: IC50. Provide a value for each of the compounds that follow.

Take a look at these entries with their results.
{"MOL SMILES": "O=C(Nc1cccc2ncn(-c3cccnc3)c(=O)c12)c1ccc(O)c(Cl)c1", "IC50": "100 to 1000 nM"}
{"MOL SMILES": "N#Cc1cc(C(=O)Nc2cccc3ncn(Cc4ccc(C(F)(F)F)cc4)c(=O)c23)cc(F)c1O", "IC50": "≤ 100 nM"}
{"MOL SMILES": "COc1ccccc1CCn1cnc2cccc(NC(=O)c3ccnc(C(F)(F)F)c3)c2c1=O", "IC50": "> 10000 nM"}
{"MOL SMILES": "O=C(Nc1cccc2ncn(Cc3nncs3)c(=O)c12)c1cc(Cl)c(O)c(C(F)(F)F)c1", "IC50": "1000 to 10000 nM"}
{"MOL SMILES": "O=C(Nc1cccc2ncn(Cc3ccccc3F)c(=O)c12)c1cc(Cl)c(O)c(C(F)(F)F)n1", "IC50": "100 to 1000 nM"}

// for each compound below, give its IC50
1. COc1ccccc1CCn1cnc2c(c(NC(=O)c3ccc(O)c(F)c3)nn2C)c1=O
2. COc1ccccc1CCn1cnc2cccc(NC(=O)c3ccc(O)c(F)c3)c2c1=O
3. CS(=O)(=O)c1ccccc1Cn1cnc2cccc(NC(=O)c3cc(F)c(O)c(C#N)c3)c2c1=O
4. COc1ccccc1CCn1cnc2cccc(NC(=O)c3ccc(OCC(=O)O)c(F)c3)c2c1=O
5. N#Cc1ccccc1Cn1cnc2cccc(NC(=O)c3cc(F)c(O)c(C#N)c3)c2c1=O

Reply:
["100 to 1000 nM", "≤ 100 nM", "100 to 1000 nM", "1000 to 10000 nM", "≤ 100 nM"]

Values compiled from patent US20230286923A1.
